Below, each of the molecules is paired with its reported Mean relative activity value.
# System: K562 CRISPRi cells
# assay_info: Constant region variant library pooled growth screen, K562
# Type: cell-based, human
# protocol_conditions: sgRNA constant region variants; activity relative to the un-modified constant region cr995

molecule: cr346 (nucleic acid, listed as DNA, chemistry not fully specified) guide: GTTTAAGAGCTAAGCTGGAAACAGCATAGCAAGTTTAAATAAGGCTAGTCCGTTATCACATTGAAAAATGGTCACCGAGTCGGTGAT
Mean relative activity: 0.9847
--
molecule: cr304 (nucleic acid, listed as DNA, chemistry not fully specified) guide: GTTTAAGAGCTAAGCTGGAAACAGCATAGCAAGTTTAAATAAGGCTAGTCCGTTATCAATTTGAGAAAATGGCACCGAGTCGGTGCT
Mean relative activity: 0.9285
--
molecule: cr364 (nucleic acid, listed as DNA, chemistry not fully specified) guide: GTTTAAGAGCTAAGCTGGAAACAGCATAGCAAGTTTAAATAAGGCTAGTCCGTTATCAACATGAAAAAGTGGCACCGAGTCGGTGCT
Mean relative activity: 0.9193
--
molecule: cr782 (nucleic acid, listed as DNA, chemistry not fully specified) guide: GTTTAAGAGCTAAGCTGGAAACAGCATAGCAAGTTTAAATAAGGCTAGTCCGTTATCAACTTTAGAAAGTGGCACCGAGTCGGTGCT
Mean relative activity: 0.9816
--
molecule: cr243 (nucleic acid, listed as DNA, chemistry not fully specified) guide: GTTTAAGAGCTAAGCTGGAAACAGCATAGCAAGTTTAAATAAGGCTAGTCCGTTATCAACTCGAAAGAGTGGCCCTGAGTCAGGGCT
Mean relative activity: 0.9319
--
molecule: cr368 (nucleic acid, listed as DNA, chemistry not fully specified) guide: GTTTAAGAGCTAAGCTGGAAACAGCATAGCAAGTTTAAATAAGGCTAGTCCGTTATCACATTGAAAAATGGGCACCGAGTCGGTGCT
Mean relative activity: 0.9836
--
molecule: cr783 (nucleic acid, listed as DNA, chemistry not fully specified) guide: GTTTAAGAGCTAAGCTGGAAACAGCATAGCAAGTTTAAATAAGGCTAGTCCGTTATCATCTTGAAAAAGAGGAACCGAGTCGGTTCT
Mean relative activity: 0.9779
--
molecule: cr372 (nucleic acid, listed as DNA, chemistry not fully specified) guide: GTTTAAGAGCTAAGCTGGAAACAGCATAGCAAGTTTAAATAAGGCGAGTCCGTTATCAACTTGAAAAAGTGGCACCGAGTCGGTGCT
Mean relative activity: 0.9545
--
molecule: cr285 (nucleic acid, listed as DNA, chemistry not fully specified) guide: GTTTAAGAGCTAAGCTGGAAAAAGCATAGCAAGTTTAAATAAGGCTAGTCCGTTATCAACTTGAAAAAGTGGCACCGAGTCGGTGCT
Mean relative activity: 0.9449
--
molecule: cr825 (nucleic acid, listed as DNA, chemistry not fully specified) guide: GTTTAAGAGCTAAGCTGGAAACAGCATAGCAAGTTTAAATAAGGCTAGTCCGTTATCAACTTGAAAAAGTGGCTGCGAGTCGCAGCT
Mean relative activity: 0.9691
--
molecule: cr811 (nucleic acid, listed as DNA, chemistry not fully specified) guide: GTTTAAGAGCTAAGCTGGAAACAGTATAGCAAGTTTAAATAAGGCTAGTCCGTTATCAACTTGAAAAAGTGGCACCGAGTCGGTGCT
Mean relative activity: 0.9803
--
molecule: cr626 (nucleic acid, listed as DNA, chemistry not fully specified) guide: GTTTAAGAGCTAAGCTGGAAACAGCATAGCAAGTTTAAATAAGGCTAGTCCGTTATCAACTTGACAAAGTGGCACCGCGTCGGTGCT
Mean relative activity: 0.9006
